- test-system: Elastase (Pseudomonas aeruginosa (strain ATCC 15692 / PAO1 / 1C / PRS 101 / LMG12228), UniProt P14756)
- Sequence (P14756 whole entry): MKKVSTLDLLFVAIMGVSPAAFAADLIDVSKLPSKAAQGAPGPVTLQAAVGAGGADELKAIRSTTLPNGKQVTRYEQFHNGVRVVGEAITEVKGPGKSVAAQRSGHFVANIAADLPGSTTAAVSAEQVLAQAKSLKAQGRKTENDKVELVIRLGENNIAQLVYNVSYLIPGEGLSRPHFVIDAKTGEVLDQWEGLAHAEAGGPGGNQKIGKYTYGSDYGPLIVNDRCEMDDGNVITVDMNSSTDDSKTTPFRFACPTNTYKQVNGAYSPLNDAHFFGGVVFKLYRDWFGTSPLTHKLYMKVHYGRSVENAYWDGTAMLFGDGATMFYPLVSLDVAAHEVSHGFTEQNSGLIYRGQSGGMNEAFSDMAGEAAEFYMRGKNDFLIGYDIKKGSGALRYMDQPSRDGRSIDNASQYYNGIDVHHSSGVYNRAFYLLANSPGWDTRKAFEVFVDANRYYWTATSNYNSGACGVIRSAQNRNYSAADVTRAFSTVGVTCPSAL
- test-description: Inhibition of Pseudomonas aeruginosa LasB by fluorimetric assay in buffer of pH 7.2
- conditions-used: read-out: Ki
property: pKi
Answers are plain numbers, as −log10 of the molar value.

Worked set:
pKi lookup needed for NC(=O)[C@H](Cc1c[nH]c2ccccc12)NC(=O)[C@H](CS)NC(=O)CS , thanks.
3.97

pKi lookup needed for NC(=O)[C@H](Cc1ccccc1)NC(=O)[C@H](Cc1cnc[nH]1)NC(=O)CS , thanks.
4.68

pKi lookup needed for CC(C)C[C@H](NC(=O)[C@H](CC(C)C)NC(=O)CS)C(N)=O , thanks.
4.28

pKi lookup needed for CC[C@@H](C)[C@H](NC(=O)CS)C(=O)N[C@@H](Cc1c[nH]c2ccccc12)C(N)=O , thanks.
3.44

pKi lookup needed for NC(=O)[C@H](Cc1ccccc1)NC(=O)[C@H](Cc1ccc(O)cc1)NC(=O)CS , thanks.
5.19

State recorded pKi for all listed compounds.
1. CC(C)[C@H](NC(=O)CS)C(=O)N[C@@H](CCCCN)C(N)=O
2. CC(C)[C@H](NC(=O)[C@@H](NC(=O)CS)[C@@H](C)O)C(N)=O
3. CC(C)C[C@H](NC(=O)CS)C(=O)N[C@@H](Cc1ccccc1)C(N)=O
4. CC(C)[C@H](NC(=O)[C@H](CCC(=O)O)NC(=O)CS)C(N)=O

1: 4.66; 2: 3.42; 3: 3.95; 4: 3.14
